target: Gag-Pol polyprotein (Human immunodeficiency virus type 1 group M subtype B (isolate HXB2)); experiment: HIV-1 RT RNase H inhibitor potency, dose response, biochemical, probe assessment (AID 652); settings: pH 8; 23 °C
This section presents compounds with their documented pIC50 values.
To interpret pIC50, take it as minus log10 of a concentration measured in moles per litre.

Request: Supply pIC50 value. Item: `Cc1ccc(-n2c(N)c(C(=O)N3CCCCC3)sc2=S)cc1`
Result: 5.64

Request: Supply pIC50 value. Item: `CC(C)(C)c1ccc(-c2nnc3sc(-c4ccncc4)nn23)cc1`
Result: 5.21

Request: Supply pIC50 value. Item: `C=CCSc1nc2c(c(=O)[nH]c(=O)n2C)n1CC`
Result: 5.43

Request: Supply pIC50 value. Item: `Cc1sc2nc(SCC(=O)NCc3ccco3)n(CCc3ccccc3)c(=O)c2c1C`
Result: 5.41

Request: Supply pIC50 value. Item: `CCn1c(SCC(=O)c2ccc(O)c(O)c2)nnc1-c1ccccc1OC`
Result: 5.63

Request: Supply pIC50 value. Item: `CCOC(=O)c1sc(NC(=O)CSc2nnc(Cc3ccccc3)o2)c(C#N)c1C`
Result: 7.03

====

This section presents molecules with their documented IC50 values.
biological target: Gag-Pol polyprotein (Human immunodeficiency virus type 1 group M subtype B (isolate HXB2), UniProt P04585); assay: HIV-1 RT RNase H inhibitor potency, dose response, biochemical, probe assessment (AID 652); settings: pH 8; 23 °C
Write down the numeric answer in nM and omit the unit.

Known results for molecules:
{"Molecule": "c1csc(-c2nn3c(C4COc5ccccc5O4)nnc3s2)c1 (stereo not drawn)", "IC50 (nM)": 1210}
{"Molecule": "O=C(c1ccc2c3c(cccc13)C(=O)N(O)C2=O)N1CCCCC1", "IC50 (nM)": 4190}
{"Molecule": "COc1ccccc1/N=c1\\oc2c(OC)cccc2cc1C(=O)NCc1ccco1", "IC50 (nM)": 3130}
{"Molecule": "COc1cc(-c2nnc3sc(Cc4ccc(Cl)cc4)nn23)cc(OC)c1OC", "IC50 (nM)": 1080}

Request: Supply IC50 value. Item: `CC(=O)N(Cc1cc(=O)[nH]c2ccccc12)c1cccc(C)c1`
Result: 5080

Request: Supply IC50 value. Item: `CC(C)(C)C1=Nn2c(nnc2-c2ccccn2)SC1`
Result: 7220

Request: Supply IC50 value. Item: `O=C(Nc1ccc2nc(-c3ccco3)c(-c3ccco3)nc2c1)N1CCCCCC1`
Result: 953

Request: Supply IC50 value. Item: `COc1ccc(OC)c(Nc2nc(-c3ccc(O)c(O)c3)cs2)c1`
Result: 1480

====

target: Gag-Pol polyprotein (Human immunodeficiency virus type 1 group M subtype B (isolate HXB2), UniProt P04585); experiment: HIV-1 RT RNase H inhibitor potency, dose response, biochemical, probe assessment (AID 652); conditions: pH 8; 23 °C
Parameter Measured: IC50

Known results for compounds:
{"Compound": "COc1cc(-c2nnc3sc(-c4cccnc4)nn23)cc(OC)c1OC", "IC50": "> 50 µM"}
{"Compound": "COc1cccc(OCC(=O)Nc2c(C(=O)Nc3ccc(OC)cc3OC)oc3ccccc23)c1", "IC50": "1.77 µM"}
{"Compound": "CC1CC(C)(C)NC(=S)S1 (stereo unspecified)", "IC50": "5.24 µM"}
{"Compound": "COc1ccc(OC)c(C=Nc2oc(-c3ccco3)c(-c3ccco3)c2C#N)c1", "IC50": "4.02 µM"}
{"Compound": "Cc1ccccc1NC(=O)CSc1nc2c(c(-c3ccco3)c1C#N)CCCC2", "IC50": "5.23 µM"}
{"Compound": "CCCCC(CC)Cn1c2nc3ccccc3nc2c2c(=N)oc(C)nc21 (stereo unspecified)", "IC50": "2.33 µM"}
{"Compound": "Cc1cccc(N2CCN(C(=O)Cn3sc4nc(C)cc(C)c4c3=O)CC2C)c1 (stereo unspecified)", "IC50": "4.28 µM"}
{"Compound": "N#Cc1c(N)nc(SCC(=O)NC2CCCCC2)c(C#N)c1-c1ccc(Cl)cc1", "IC50": "4.42 µM"}
{"Compound": "c1c2c(cc3sc(N4CCOCC4)nc13)OCO2", "IC50": "3.59 µM"}
{"Compound": "O=C(Cn1c(=O)oc2cc(S(=O)(=O)N3CCCC3)ccc21)NC1CCCc2ccccc21 (stereo unspecified)", "IC50": "19.8 µM"}

Request: Supply IC50 value. Item: `c1ccc2[nH]c(SN3CCOCC3)nc2c1`
Result: 12.5 µM

Request: Supply IC50 value. Item: COc1cc(OC)c(C2CC(=O)N3CN(c4ccccc4C)CSC3=C2C#N)cc1OC (stereo unspecified)
Result: 4.51 µM

Request: Supply IC50 value. Item: `CC1=C(SCCC#N)S/C(=C2\SC(C)=C(SCCC#N)S2)S1`
Result: 2.8 µM

Request: Supply IC50 value. Item: `O=C(O)c1cc(S(=O)(=O)Nc2ccc3oc(=O)sc3c2)ccc1O`
Result: 7.39 µM

====

target: Gag-Pol polyprotein (Human immunodeficiency virus type 1 group M subtype B (isolate HXB2)); assay: HIV-1 RT RNase H inhibitor potency, dose response, biochemical, probe assessment (AID 652); settings: pH 8; 23 °C
Parameter Measured: pIC50
To interpret pIC50, take it as minus log10 of a concentration measured in moles per litre.

Known results for compounds:
{"Compound": "Cc1cc(C)c2c(=O)n(CC(=O)N3CCC(N4CCCCC4)CC3)sc2n1", "pIC50": 4.42}
{"Compound": "C=CCn1c(N)c(C(=O)NCCC2=CCCCC2)sc1=S", "pIC50": 5.42}
{"Compound": "COc1ccc(OC)c(CCNC(=O)Cn2sc3nc(C)cc(C)c3c2=O)c1", "pIC50": 5.51}

Request: Supply pIC50 value. Item: `CCCCCn1c(=O)c(C(=O)NCc2ccncc2)c(O)c2ccccc21`
Result: 5.13

Request: Supply pIC50 value. Item: `CCOC(=O)CSc1nc2cc(C(=O)NCc3ccco3)ccc2c(=O)n1C1CCCCC1`
Result: 5.22

Request: Supply pIC50 value. Item: CCOC(=O)c1c(N)sc2c1CCC1C(=O)N(C3CCCCC3)C(=O)C21 (centres undefined)
Result: 5.32

Request: Supply pIC50 value. Item: `CN1CCN(C(=O)c2sc(=S)n(-c3ccccc3)c2N)CC1`
Result: 5.64

Request: Supply pIC50 value. Item: `COC(=O)c1ccc2c(=O)n(Cc3ccco3)c(SCC(=O)Nc3ccc(C)c(Cl)c3)nc2c1`
Result: 5.55

Request: Supply pIC50 value. Item: `CCCc1cc(C(=O)Nc2sc3c(c2C#N)CCC3)no1`
Result: 5.55

====

molecular target: Gag-Pol polyprotein (Human immunodeficiency virus type 1 group M subtype B (isolate HXB2)); experiment: HIV-1 RT RNase H inhibitor potency, dose response, biochemical, probe assessment (AID 652); conditions: pH 8; 23 °C
pIC50: −log10 of the molar value.
Rule: pIC50 of 5 or more gives y; anything lower gives n.

Solved entries (count: 5):
{"Compound": "CC(C)Cn1c(SCC(=O)NC(=O)Nc2ccc3c(c2)OCCO3)nc2ccccc2c1=O [MLS000057544]", "Assigned Label": "y"}
{"Compound": "CC(C)c1ccc2oc(-c3ccc(NC(=O)c4nnc[nH]4)cc3)nc2c1", "Assigned Label": "y"}
{"Compound": "O=C(O)/C=C/c1ccc(O)c(O)c1 [3,4-Dihydroxycinnamate, XVII]", "Assigned Label": "n"}
{"Compound": "Cc1cccc(-c2nsc(SCC(=O)Nc3nccs3)n2)c1", "Assigned Label": "y"}
{"Compound": "CC(C)c1nnc(NC(=O)c2c(O)n3c4c(cccc4c2=O)CCC3)s1", "Assigned Label": "n"}

Request: Textbook exercise: given the entry `Cc1cccc(Nc2nnc(S)s2)c1C` , state whether its pIC50 is greater than or equal to 5.
Result: y

Request: Textbook exercise: given the entry `c1ccc2c(c1)nnn2Cc1nnc2sc(-c3ccc4c(c3)OCCO4)nn12` , state whether its pIC50 is greater than or equal to 5.
Result: y

Request: Textbook exercise: given the entry C=CCOC(=O)C1=C(C)N=C(SCC(=O)Nc2ccc(C)c(Cl)c2)C(C#N)C1c1ccco1 (stereo unspecified) , state whether its pIC50 is greater than or equal to 5.
Result: y

Request: Textbook exercise: given the entry O=c1c2ccccc2[se]n1-c1ccccc1 [2-Phenyl-benzo[d]isoselenazol-3-one] , state whether its pIC50 is greater than or equal to 5.
Result: n

Request: Textbook exercise: given the entry `O=c1[nH]c(=O)n(-c2ccc(F)cc2)c(O)c1C=Nc1ccccc1N1CCCC1` , state whether its pIC50 is greater than or equal to 5.
Result: n

Request: Textbook exercise: given the entry COc1cc(/N=c2/ssnc2Cl)cc(OC)c1OC [SMR000025034] , state whether its pIC50 is greater than or equal to 5.
Result: y

Request: Textbook exercise: given the entry CC(C)Sc1nc2sc3c(c2c2nnc(SCC(=O)NCc4ccco4)n12)CCCC3 [MLS000082957] , state whether its pIC50 is greater than or equal to 5.
Result: y

Request: Textbook exercise: given the entry `CCCc1nnc(NC(=O)CN2C(=O)c3ccccc3S2(=O)=O)s1` , state whether its pIC50 is greater than or equal to 5.
Result: y

Request: Textbook exercise: given the entry `CCCN(CCC)S(=O)(=O)c1ccc(C(=O)Nc2nnc(-c3cccc(OC)c3)o2)cc1` , state whether its pIC50 is greater than or equal to 5.
Result: n

Request: Textbook exercise: given the entry `CCCCCn1c(SCCCC)nc2c1c(=O)[nH]c(=O)n2C` , state whether its pIC50 is greater than or equal to 5.
Result: y

Request: Textbook exercise: given the entry CSc1ccc(C2c3ccc(=O)c4c(C)oc(C)c4c3OC(=N)C2C#N)cc1 (stereo unspecified) , state whether its pIC50 is greater than or equal to 5.
Result: y

Request: Textbook exercise: given the entry O=C(CSc1nnnn1-c1ccccc1)Nc1nsc(-c2ccc(Cl)cc2)n1 [MLS000085595] , state whether its pIC50 is greater than or equal to 5.
Result: n

Request: Textbook exercise: given the entry CCCc1cc(C(N)=O)c(NC(=O)C2CCCO2)s1 (stereo unspecified) [MLS000065925] , state whether its pIC50 is greater than or equal to 5.
Result: y

Request: Textbook exercise: given the entry `COc1ccc(-c2nsc(SCC(=O)Nc3cc(C)on3)n2)cc1` , state whether its pIC50 is greater than or equal to 5.
Result: y

Request: Textbook exercise: given the entry `O=C(NCc1ccco1)c1cc2cc3ccc(Cl)cc3nc2o1` , state whether its pIC50 is greater than or equal to 5.
Result: n

Recorded values, source BindingDB's records for doi:10.7270/Q2H70D5W.
